- Tested on: army worm
- Assay name: Test against army worm (corn leaf spraying)
- Assay type: in vivo
- Condition notes: 72 h
Here the recorded mortality at 2.5 ppm is given for each entry.

Ask: Output measured mortality at 2.5 ppm for this item: `CC(C)(NC(=O)c1cc(Cl)cc(Cl)c1NC(=O)c1cc(Cl)nn1-c1ncccc1Cl)C(N)=O`
Result: 64.3%

Ask: Output measured mortality at 2.5 ppm for this item: CC(NC(=O)c1cc(F)cc(Cl)c1NC(=O)c1cc(Br)nn1-c1ncccc1Cl)C(N)=O (centres unmarked) [KC2, reference compound]
Result: 0%

====

- Test system: army worm
- Assay name: Test against army worm (corn leaf spraying)
- Format: in vivo
- Condition notes: 72 h
Endpoint label: mortality at 2.5 ppm
Remember to put the unit after the number in your answer.

Here's what some known entries look like.
CC(NC(=O)c1cc(Br)cc(Br)c1NC(=O)c1cc(Br)nn1-c1ncccc1Cl)C(N)=O (stereo not drawn) [KC1, reference compound] :: 0%
CC(C)(NC(=O)c1cc(Cl)cc(Cl)c1NC(=O)c1cc(Br)nn1-c1ncccc1Cl)C(N)=O [Compound 1.4] :: 50%

Now for a further compound.
Ask: Please indicate recorded mortality at 2.5 ppm of CC(C)(NC(=O)c1cc(Br)cc(Br)c1NC(=O)c1cc(Br)nn1-c1ncccc1Cl)C(N)=O [Compound 1.10] measured with army worm.
Result: 62.5%
